Biological target: T1, Human IL-11 (human, UniProt P20809 22-199); also: test concentration or dose not given here
T1 sequence: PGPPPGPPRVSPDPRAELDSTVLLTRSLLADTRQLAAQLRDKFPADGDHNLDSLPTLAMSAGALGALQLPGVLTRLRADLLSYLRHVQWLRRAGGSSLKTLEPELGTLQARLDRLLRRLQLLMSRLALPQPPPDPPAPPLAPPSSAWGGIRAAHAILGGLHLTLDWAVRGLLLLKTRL
Experiment: cell-based or functional assay
readout: MMP2 production, Experiment 2 (human atrial fibroblasts + TGFB1) (ng/mL)
Numbers only, in ng/mL.

Examples with answers:
1) YU112-B06 (antibody) QVQLVESGGGVVQPGRSLRLSCAASGFTFSSYGMHWVRQAPGKGLEWVAVISYDGSNKYYADSVKGRFTISRDNSKNTLYLQMNSLRAEDTAVYYCAKIGATDPLDYWGQGTLVTVSSGSASAPKLEEGEFSEARVQSALTQPASVSGSPGQSITISCTGTSSDVGGYNYVSWYQQHPGKAPKLMIYDVSNRPSGVSNRFSGSKSGNTASLTIFGLQAEDEADYYCSSYTSSSSWVFGGGTKLTVL | 43.9
2) YU100-E09 (antibody) QVQLVESGGGVVQPGRSLRLSCAASGFTFSSYAMHWVRQAPGKGLEWVAVISYDGSNKYYADSVKGRFTISRDNSKNTLYLQMNSLRAEDTAVYYCARIMGYDYGDYDVVDYWGQGTLVTVSSGSASAPKLEEGEFSEARVQSALTQPRSVSGSPGQSVTISCTGTSSDVGDYDYVSWYQQHPGKAPKLIIYDVTKRPSGIPDRFSGSKSGNTASLTISGLQAEDEADYYCCSYAGSYTWVFGRGTKLTVL | 44.4
3) YU100-F01 (antibody) QVQLVQSGGGVVQPGRSLRLSCAASGFTFSSYGMHWVRQAPGKGLEWVAVISYDGSNKYYADSVKGRFTISRDNSKNTLYLQMNSLRAEDTAVYYCAKIGATDPLDYWGQGTLVTVSSGSASAPKLEEGEFSEARVQSALTQPASVSGSPGQSITISCTGTGSDVGAYDYVSWYQQHPGKAPKLMIYDVNNRPSGVSNRFSGSKSGNTASLTISGLQAEDEAEYYCSSFATSISWVFGGGTRLTVL | 39.9
4) YU100-F11 (antibody, V domains shown, light chain-shuffled human anti-IL-11 clone) VH: QVQLVESGGGVVQPGRSLRLSCAASGFTFSSYGMHWVRQAPGKGLEWVAVISYDGSNKYYADSVKGRFTISRDNSKNTLYLQMNSLRAEDTAVYYCAKIGATDPLDYWGQGTLVTVSS VL: QSALTQPASVSGSPGQSITISCTGSSSDVAGYNYVSWYQQHPGKAPKLMIYDVTKRPSGVPDRFSGSKSGNTASLTISGLQAEDEADYYCCSYAGSYTWVFGGGTQLTVLG | 37.6
5) YU100-B07 (antibody) QVQLVESGGGVVQPGRSLRLSCAASGFTFSSYGMHWVRQAPGKGLEWVAVISYDGSNKYYADSVKGRFTISRDNSKNTLYLQMNSLRAEDTAVYYCAKIGATDPLDYWGQGTLVTVSSGSASAPKLEEGEFSEARVQSALTQPRSVSGSPGQSVTMSCTGTSRDVGGYNYVSWYQHHPGKAPKLMIYDVSKRPSGVPDRFSGSKSGNTASLTISELQAEDEADYYCCSYAGSYTWVFGGGTKLTVL | 47.4
6) YU100-B01 (antibody) QVQLVQSGGGVVQPGRSLRLSCAASGFTFSSYGMHWVRQAPGKGLEWVAVISYDGSNKYYADSVKGRFTISRDNSKNTLYLQMNSLRAEDTAVYYCAKIGATDPLDYWGQGTLVTVSSGSASAPKLEEGEFSEARVQSALTQPRSVSGSPGQSVTISCTGTNTDVGAYNYVSWYQQYPGKAPKLIIYDVSKRPSGVPDRFSGSKSGNTASLTISGLQAEDEADYYCCSYAGSYSWVFGGGTKLTVL | 40
7) YU100-E10 (antibody) QVQLVQSGGGVVQPGRSLRLSCAASGFTFSSYGMHWVRQAPGKGLEWVAVISYDGSNKYYADSVKGRFTISRDNSKNTLYLQMNSLRAEDTAVYYCAKIGATDPLDYWGQGTLVTVSSGSASAPKLEEGEFSEARVQSALTQPRSVSGSPGQSVTISCTGTSSDVGGYNYVSWYQQHPGKAPKLMIFDVSQRPSGVPDRFSASKSGNTASLTISGLQAEDEADYYCCSYAGSYTWVFGGGTKLTVL | 47
8) YU100-E12 (antibody) QVQLVESGGGVVQPGRSLRLSCAASGFTFSSYGMHWVRQAPGKGLEWVAVISYDGSNKYYADSVKGRFTISRDNSKNTLYLQMNSLRAEDTAVYYCAKIGATDPLDYWGQGTLVTVSSGSASAPKLEEGEFSEARVQSALTQPASVSGSPGQSITISCTGTSSDVGGYNYVSWYQQHPGTAPKLMIYDVSNRPSGVSNRFSGSKSGNTASLTISGLQAEDEADYYCSSYTSSTTWVFGGGTKLTVL | 47.9
9) YU100-B06 (antibody) QVQLVESGGGVVQPGRSLRLSCAASGFTFSSYGMHWVRQAPGKGLEWVAVISYDGSNKYYADSVKSRFTISRDNSKNTLYLQMNSLRAEDTAVYYCAKIGATDPLDYWGQGTLVTVSSGSASAPKLEEGEFSEARVQSALTQPASVSGSPGQSITISCTGTSSDVGGYNYVSWYQQHPGKAPKLMIYDVSKRPSGVPDRFSGSKSGNTASLTISGLQAEDEADYYCNSYAGSYTWVFGGGTKLTVL | 49.6

Query binder follows.
input: What value of measured MMP2 production, Experiment 2 (human atrial fibroblasts + TGFB1) is listed for YU112-H02 (antibody) QVQLVESGGGVVQPGRSLRLSCAASGFTFSSYGMHWVRQAPGKGLEWVAVISYDGSNKYYADSVKGRFTISRDNSKNTLYLQMNSLRAEDTAVYYCAKLSGPNGVDYWGQGTLVTVSSGSASAPKLEEGEFSEARVQPVLTQPRSVSGSPGQSVTISCTGTSSDVGGYNYVSWYQQHPGKAPKVMIYDVSKRPSGVPDRFSGSKSGNTASLTISGLQAEDEADYYCCSYAGSYTWVFGGGTKLTVL ?
output: 58
